test system: INS1; test: beta cell apoptosis inhibitors, cytokine rescue, dose response, luminescence, retest (AID 449756); type: functional, cell-based; conditions: Rattus norvegicus;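 also: cell death triggered by IL-1 beta plus TNF-alpha plus IFN-gamma mixture; protective hits raise ATP signal compared with cytokine alone wells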
Activity calls are given as the source filed them.
Assignment: determine reported AC50 for the given compounds.

Please review the following examples before continuing.
compound | tested-on | observed-result
Oc1c(CN2CCOCC2)cc(COCc2ccccc2)c2cccnc12 | INS1 | 2.39 µM (active)
C#CCOCCOCCOCCNc1nc(N2CCN(C(=O)CCCCCCCCCCNC(=O)[C@H](CCCCN)n3cc(C[C@@H](C)CC)nn3)CC2)nc(N2CCN(C(=O)CCCCCCCCCCNC(=O)[C@@H]([C@H](C)O)n3cc(C)nn3)CC2)n1 | INS1 | 4.74 µM (active)
NC(=O)c1ccc(N2CCN(S(=O)(=O)c3cccs3)CC2)c([N+](=O)[O-])c1 | INS1 | 3.67 µM (active)
Cc1ccc(Oc2nc(-c3ccccn3)nc3ccccc23)cc1 | INS1 | 1.78 µM (active)

Problem: Entry CC1CN(CC(O)COC(c2ccc(Cl)cc2)c2ccc(Cl)cc2)CC(C)O1 (stereo not given) needs its AC50 filled in; supply it.
Result: 11.9 µM (active)

====

molecular target: Luciferin 4-monooxygenase (Photinus pyralis, UniProt P08659); test: Counter Screen for Luciferase-based Assay Positives. [Related pubchem assays: 620, 618, 411 ]
Sequence (P08659 whole entry): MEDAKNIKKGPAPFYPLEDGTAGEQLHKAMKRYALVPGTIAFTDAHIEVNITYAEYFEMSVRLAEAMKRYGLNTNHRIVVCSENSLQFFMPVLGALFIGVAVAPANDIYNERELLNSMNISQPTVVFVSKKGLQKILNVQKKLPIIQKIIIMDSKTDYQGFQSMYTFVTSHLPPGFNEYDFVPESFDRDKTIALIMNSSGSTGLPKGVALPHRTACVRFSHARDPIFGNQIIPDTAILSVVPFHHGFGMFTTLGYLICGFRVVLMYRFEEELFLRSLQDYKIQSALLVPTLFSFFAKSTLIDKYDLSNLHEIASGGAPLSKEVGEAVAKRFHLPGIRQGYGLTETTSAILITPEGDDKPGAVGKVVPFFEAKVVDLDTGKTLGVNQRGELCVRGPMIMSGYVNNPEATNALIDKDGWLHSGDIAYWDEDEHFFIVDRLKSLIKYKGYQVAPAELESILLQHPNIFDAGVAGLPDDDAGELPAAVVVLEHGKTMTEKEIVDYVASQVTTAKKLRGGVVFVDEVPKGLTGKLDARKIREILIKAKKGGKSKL
The source made the active and inactive calls.
Assignment: determine reported EC50 for the given compounds.

Please review the following examples before continuing.
line-notation | readout-type | observed-result
O=C(Nc1nc2ccccc2[nH]1)c1ccccc1 | EC50 | < 200 nM (active)
Cc1cc(NCCCn2ccnc2)n2ncc(-c3ccc(Cl)cc3)c2n1 | EC50 | 2180 nM (active)
Cc1ccc2[nH]c(-c3cccc(N)c3)nc2c1 | EC50 | 490 nM (active)
CCCc1ccc(-c2ccc(F)c(N)c2)nc1 | EC50 | 1580 nM (active)

Problem: Entry `Cc1ccc(C(=O)Nc2nc3c(s2)CCCC3)o1` needs its EC50 filled in; supply it.
Result: > 100000 nM (not active)

====

test system: BJ; assay: cells; assay type: functional, cell-based; conditions: Homo sapiens
Activity calls are given as the source filed them.
readout-type: EC50

Please review the following examples before continuing.
line-notation | tested-on | readout-type | observed-result
CCN(CC)c1ccc2c(cc1=O)[C@@H](NC)CCc1cc(OC)c(OC)c(OC)c1-2 | BJ | EC50 | 1.36 µM (inconclusive)
c1ccc(-c2cn3c(n2)-c2ccccc2C3)cc1 | BJ | EC50 | 14.3 µM (active)
Cc1ccc(Nc2cc(C)nn2-c2nc(C)cc(O)n2)cc1 | BJ | EC50 | 14 µM (active)
Cc1ccccc1-c1cc(C(=O)Nc2sc(C(=O)OC(C)C)c(C)c2C#N)c2ccccc2n1 | BJ | EC50 | > 150 µM (inconclusive)

Next item in the queue.
Problem: Entry `CCN(CC)c1ccc(C=C2C(=O)NC(=S)NC2=O)cc1` needs its EC50 filled in; supply it.
Result: 15.9 µM (active)

====

Target: Rac GTPase-activating protein 1 (Homo sapiens)
Sequence (Q9H0H5 whole entry): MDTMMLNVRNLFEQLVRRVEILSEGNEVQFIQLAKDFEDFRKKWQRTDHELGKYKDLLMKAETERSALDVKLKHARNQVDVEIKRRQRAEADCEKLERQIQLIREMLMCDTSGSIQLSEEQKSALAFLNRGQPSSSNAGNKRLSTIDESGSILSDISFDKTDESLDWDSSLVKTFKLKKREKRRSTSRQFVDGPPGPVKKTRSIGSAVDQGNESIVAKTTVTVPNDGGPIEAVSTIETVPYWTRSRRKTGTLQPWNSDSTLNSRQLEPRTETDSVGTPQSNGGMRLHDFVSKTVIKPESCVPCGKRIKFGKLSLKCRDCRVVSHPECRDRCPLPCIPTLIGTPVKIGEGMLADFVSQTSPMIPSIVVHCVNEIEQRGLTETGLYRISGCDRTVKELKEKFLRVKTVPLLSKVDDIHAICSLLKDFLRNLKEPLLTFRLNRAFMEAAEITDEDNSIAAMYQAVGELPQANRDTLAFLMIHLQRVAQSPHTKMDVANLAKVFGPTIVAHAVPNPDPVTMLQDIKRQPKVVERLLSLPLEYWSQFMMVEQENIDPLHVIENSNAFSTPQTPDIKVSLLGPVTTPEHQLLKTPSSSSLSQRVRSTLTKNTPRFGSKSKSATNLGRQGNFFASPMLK
Test: MgcRacGAP GTPase-activating activity inhibitors, confirmation, biochemical, ADP Hunter fluorescence, primary and confirmatory (AID 624330)
Format: functional
Where a name gives a salt, the structure may show the parent alone. The source made the active and inactive calls.
readout-type: IC50

Please review the following examples before continuing.
molecule | readout-type | observed-result
CN(C)c1ncc(C2=C(Cl)C(=O)C(N3CCCC3)=C(Cl)C2=O)s1 | IC50 | 89.5 µM (active)
COc1ccc(N2CCN(S(=O)(=O)c3c(C)nc4scc(C)n4c3=O)CC2)cc1 | IC50 | 209 µM (active)
CSCCO/C(O)=C1/Sc2cc(C)ccc2N=C1C | IC50 | 52.9 µM (active)
CCN(CC)c1ccc(Nc2nc(Cl)ncc2Br)cc1 | IC50 | 50.3 µM (active)
COc1ccc(CCNCc2cccc(C(F)(F)F)c2)cc1OC | IC50 | 186 µM (active)
O=C(c1ccc(OCCN2CCCCC2)cc1)c1c(-c2ccc(O)cc2)sc2cc(O)ccc12 [RALOXIFENE HYDROCHLORIDE] | IC50 | 27.8 µM (active)
COc1ccc(N2C(=O)/C(=C/N(C)C)NC2=S)cc1 | IC50 | 75.4 µM (active)
Cc1ccc(SCCN2CCN(Cc3ccccc3)CC2)cc1 | IC50 | 84.8 µM (active)

# map each molecule to its IC50
1. O=C(Nc1ccc(O)cc1)c1cccc(Oc2ccc([N+](=O)[O-])cc2)c1
2. COc1ccc2c(c1)-c1nc(/N=C/c3ccccc3O)sc1CC2
3. Cc1cc(NS(=O)(=O)c2ccc(Nc3nc(-c4ccc(O)cc4)cs3)cc2)no1
4. CCOc1ccccc1Oc1c[nH]nc1-c1ccc(O)cc1O

Result:
["41.8 µM (active)", "20 µM (active)", "30.8 µM (active)", "35.5 µM (active)"]

====

target: Adenosylmethionine-8-amino-7-oxononanoate aminotransferase (Mycobacterium tuberculosis); assay: Mycobacterium tuberculosis BioA enzyme inhibitor Measured in Biochemical System Using Plate Reader - 2163-02_Inhibitor_Dose_CherryPick_Activity.; type: functional, Mycobacterium tuberculosis UT205
Sequence (P9WQ81 whole entry): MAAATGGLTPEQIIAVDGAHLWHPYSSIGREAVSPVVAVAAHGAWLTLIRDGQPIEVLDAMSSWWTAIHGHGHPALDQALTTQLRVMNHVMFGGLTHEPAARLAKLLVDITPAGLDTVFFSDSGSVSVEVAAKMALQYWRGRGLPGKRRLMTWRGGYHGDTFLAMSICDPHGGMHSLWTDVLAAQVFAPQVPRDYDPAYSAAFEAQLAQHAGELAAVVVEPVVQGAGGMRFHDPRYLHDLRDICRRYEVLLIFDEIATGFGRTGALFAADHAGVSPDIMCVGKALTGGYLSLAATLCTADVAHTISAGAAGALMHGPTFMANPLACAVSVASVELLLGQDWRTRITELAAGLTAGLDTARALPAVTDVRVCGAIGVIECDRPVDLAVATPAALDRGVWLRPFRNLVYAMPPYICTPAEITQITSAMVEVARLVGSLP
Active and inactive are the calls of the source.
Assignment: determine reported AC50 for the given compounds.

compound | observed-result
COc1cccc(CNC(=O)c2ccc(NC(=O)C3=CSCCO3)cc2)c1 | 3.61 µM (active)
Cc1c(C(N)=O)sc(N)c1C(=O)OC(C)C | 3.06 µM (active)
C/C=C/c1ccc2c(c1)O[C@@H](CN(C)C(=O)c1ccc3c(c1)OCO3)[C@@H](C)CN([C@@H](C)CO)S2(=O)=O | 5.33 µM (active)

Next item in the queue.
Problem: Entry CC(=O)c1ccc(NC(=O)C2CC(=O)N(Cc3ccccc3)C2)cc1 (centres undefined) needs its AC50 filled in; supply it.
Result: 5.19 µM (active)

====

Assignment: determine reported IC50 for the given compounds.
biological target: Glyceraldehyde-3-phosphate dehydrogenase (Homo sapiens, UniProt P04406)
Sequence (P04406 whole entry): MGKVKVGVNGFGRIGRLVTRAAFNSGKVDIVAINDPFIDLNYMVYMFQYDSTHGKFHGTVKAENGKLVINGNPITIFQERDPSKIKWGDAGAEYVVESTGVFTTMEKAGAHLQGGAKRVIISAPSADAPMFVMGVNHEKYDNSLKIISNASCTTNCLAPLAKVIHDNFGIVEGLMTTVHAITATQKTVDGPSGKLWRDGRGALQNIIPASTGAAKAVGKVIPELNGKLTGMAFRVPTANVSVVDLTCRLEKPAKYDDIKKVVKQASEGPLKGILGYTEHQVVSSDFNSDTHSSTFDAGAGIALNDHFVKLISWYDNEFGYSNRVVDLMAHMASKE

Please review the following examples before continuing.
line-notation | tested-on | IC50
Cc1ccc(N2C(=O)C(Cl)=C(N3CCN(c4ccccc4)CC3)C2=O)cc1 | Glyceraldehyde-3-phosphate dehydrogenase (Homo sapiens, UniProt P04406) | > 50 µM (inconclusive)
COc1ccc(N2CCN(C3=C(Cl)C(=O)N(c4ccc(Cl)nc4)C3=O)CC2)cc1 | Glyceraldehyde-3-phosphate dehydrogenase (Homo sapiens, UniProt P04406) | > 50 µM (inconclusive)
O=C(Nc1cnn(C23CC4CC(CC(C4)C2)C3)c1)c1cnn2c(C(F)(F)F)cc(-c3ccco3)nc12 | Glyceraldehyde-3-phosphate dehydrogenase (Homo sapiens, UniProt P04406) | > 100 µM (not active)
COc1ccc(-c2cc(N)n(S(=O)(=O)c3ccc(Cl)cc3)n2)cc1OC | Glyceraldehyde-3-phosphate dehydrogenase (Homo sapiens, UniProt P04406) | > 100 µM (not active)
CCOc1ccc(Cl)cc1S(=O)(=O)Nc1cccnc1 | Glyceraldehyde-3-phosphate dehydrogenase (Homo sapiens, UniProt P04406) | > 100 µM (not active)

Problem: Entry `O=C(O)c1ccc(-c2ccccc2)[nH]1` needs its IC50 filled in; supply it.
Result: > 100 µM (not active)

====

Parameter AC50, tested on Cytochrome P450 1A2 (Homo sapiens), listed per item.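 Also: PubChem cytochrome P450 panel assay, CYP1A2 panel member.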
Sequence (P05177 whole entry): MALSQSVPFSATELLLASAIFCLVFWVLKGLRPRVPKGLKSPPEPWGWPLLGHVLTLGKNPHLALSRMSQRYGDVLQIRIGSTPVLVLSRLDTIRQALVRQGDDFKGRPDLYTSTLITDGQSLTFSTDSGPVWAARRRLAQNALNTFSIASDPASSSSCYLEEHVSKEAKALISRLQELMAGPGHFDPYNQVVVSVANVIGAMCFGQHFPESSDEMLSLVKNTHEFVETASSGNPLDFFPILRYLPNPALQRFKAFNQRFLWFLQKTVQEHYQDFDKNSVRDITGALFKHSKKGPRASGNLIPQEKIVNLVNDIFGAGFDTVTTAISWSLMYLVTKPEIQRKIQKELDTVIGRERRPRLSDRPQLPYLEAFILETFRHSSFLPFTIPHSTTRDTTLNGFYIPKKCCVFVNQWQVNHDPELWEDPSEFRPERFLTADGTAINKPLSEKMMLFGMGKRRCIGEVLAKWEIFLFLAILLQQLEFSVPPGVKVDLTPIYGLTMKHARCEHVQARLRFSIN

Please review the following examples before continuing.
compound | observed-result
N#CCCn1c(=O)c(-c2cc(F)cc(F)c2)nc2cnc(N3CCOCC3)nc21 | 3.16 µM (inconclusive)
O=C(NCC1CCCO1)C1c2ccccc2C(=O)N1Cc1ccc2c(c1)OCO2 (stereo unspecified) | 15.8 µM (inconclusive)
COCC(C)n1c(C)cc(C(=O)CSc2nnc(Nc3ccccc3F)s2)c1C (stereo unspecified) | 28.2 µM (inconclusive)
CCSc1nnc([C@@H](N)Cc2c[nH]c3ccccc23)o1 | 17.8 µM (inconclusive)
CCOC(=O)c1cc2c(ccn2C)n1CC(=O)N1CCCC(C)C1 (stereo unspecified) | 20 µM (inconclusive)

# map each compound to its AC50
1. CCOc1ccc(-c2nn(-c3ccccc3)cc2/C=C2\SC(N)=NC2=O)cc1C
2. CCOc1c2ccc(C(=O)N[C@H](C)C3CCCCC3)cc2nn1CC
3. Cc1ccc(S(=O)(=O)Nc2ccccc2C(=O)c2ccc(C)c(C)c2)cc1
4. COC(=O)N1CCC2(CC1)CN(c1ccc(-c3ccccc3)cc1)C2
5. Cc1ccc(CN2CC34C=CC(O3)C(C(=O)NCc3ccco3)C4C2=O)cc1 (stereo unspecified)

Result:
1. 15.8 µM (inconclusive)
2. 12.6 µM (inconclusive)
3. 0.631 µM (inconclusive)
4. 1.26 µM (inconclusive)
5. 20 µM (inconclusive)

Problem: Entry `O=C(c1ccncc1)N1CCC2(CC1)CCN(c1ncccn1)CC2` needs its AC50 filled in; supply it.
Result: 20 µM (inconclusive)
